meta.source: ChEMBL document CHEMBL1201862

- Tested on: RXF 393
- Assay notes: NCI tumour cell line growth inhibition, 48 h
Active and inactive are the calls of the source. Rule as the data show it: active = GI50 up to about 1.1 µM and inactive = higher.
Measure: GI50

For CCCCCCCCCCCCCOCCOCCOCCCCC(O)CCCCCCCCCC1=C[C@H](C)OC1=O (some centres not stated) on RXF 393, measured GI50 was 20.1 µM (inactive)

For `O=c1cc(-c2ccccc2)[nH]c2cc(F)cc(F)c12` on RXF 393, measured GI50 was 29.2 µM (inactive)

For N#CC(C(=O)CCC(=O)Nc1cccc(C(F)(F)F)c1)c1ccccc1 (configuration not stated) on RXF 393, measured GI50 was > 100 µM (inactive)

For `CN(C(=O)c1ccccc1)c1ccc2c(c1)C(=O)c1ccccc1C2=O` on RXF 393, measured GI50 was > 100 µM (inactive)

For `O=c1ccc2nc3ccc(O)cc3oc-2c1` on RXF 393, measured GI50 was > 100 µM (inactive)

For `O=C1C=C(c2ccccc2)O/C1=C\C(=O)c1ccc(Cl)cc1` on RXF 393, measured GI50 was 17.7 µM (inactive)

For ClC1c2ccccc2C2(c3ccccc3)OOC1(c1ccccc1)O2 (configuration not stated) on RXF 393, measured GI50 was 1.4 µM (inactive)

For O=C(O)C1C2c3ccccc3C(c3ccccc32)C1C(=O)NCC1CC1 (configuration not stated) on RXF 393, measured GI50 was 97.5 µM (inactive)

For CC(=O)c1c(-c2ccco2)c(C#N)c(=S)n(C2OC(CO)C(O)C(O)C2O)c1C (configuration not stated) on RXF 393, measured GI50 was > 100 µM (inactive)

For CCOC(=O)C1=C(OC(OCC)C(CC)[Se]c2ccccc2)CCCC1 (configuration not stated) on RXF 393, measured GI50 was 20.5 µM (inactive)

Continuing:
For CC1(C)C2CCC1(C)C(NC(=O)CCN1CCOCC1)C2 (configuration not stated) on RXF 393, measured GI50 was > 100 µM (inactive)

For `CC(C)(C)C(=O)C(C(=O)C(C)(C)C)C(=O)C(C)(C)C` on RXF 393, measured GI50 was > 100 µM (inactive)

For C=C1C(=O)OC2/C=C(\C)CC/C=C(\C)CC(OC(=O)/C(=C/CO)CO)[C@@H]12 (some centres not stated) on RXF 393, measured GI50 was 7.19 µM (inactive)

For C=[N+](CNC(=O)CNC(=O)C(Cc1ccc([N+](=O)[O-])cc1)NC(=O)OC(C)(C)C)C(=O)CNC(=O)C(Cc1ccc([N+](=O)[O-])cc1)NC(=O)OC(C)(C)C (configuration not stated) on RXF 393, measured GI50 was 39.4 µM (inactive)

For `NC1CCCCC1.O=P(O)(O)C1(P(=O)(O)O)CC1` on RXF 393, measured GI50 was > 100 µM (inactive)

For `O=C(CN1CCCCC1)c1ccc2[nH]c(=O)oc2c1` on RXF 393, measured GI50 was > 100 µM (inactive)

For `O=[N+]([O-])c1ccc2[nH]nc(OCc3ccccc3Cl)c2c1` on RXF 393, measured GI50 was 18.2 µM (inactive)

For `CCCCn1c2c(n(CCCC)c1=[Se])-c1c(n(CCCC)c(=[Se])n1CCCC)S[Se][Se]S2` on RXF 393, measured GI50 was 21.8 µM (inactive)

* * *

Collected GI50 values appear next to each entry.
- System: U-251
- Assay notes: NCI tumour cell line growth inhibition, 48 h
Calls of active or inactive are those of the source. Rule as the data show it: active = GI50 up to about 1.1 µM and inactive = higher.

Recorded results for 5 compounds are shown here.
Recorded GI50 (compound O=C1CC2Sc3ccccc3N=C2N1c1ccc(Cl)cc1Cl (stereo not drawn) ): 32.2 µM (inactive)

Recorded GI50 (compound `CCCC(=O)Nc1cc([N+](=O)[O-])c([N+](=O)[O-])cc1OC` ): 16.3 µM (inactive)

Recorded GI50 (compound `CC1(C)CCC[C@]2(C)[C@H]3[C@H](C#N)c4cc(O)c(O)cc4O[C@@]3(C)CC[C@@H]12` ): > 10 µM (inactive)

Recorded GI50 (compound CCCCCCCCCCCCC1NC(=N)NC2(CCCO2)C1C(=O)OC (stereo not drawn) ): 1.64 µM (inactive)

Recorded GI50 (compound O=C1C2[C@@H](C(=O)N1c1ccc(Br)cc1)C13C(=CC2([N+](=O)[O-])[C@@H]2C(=O)N(c4ccc(Br)cc4)C(=O)[C@@H]21)c1ccccc1N3c1ccccc1 (stereo partly drawn) ): > 100 µM (inactive)

Please look at the following compound next.
Recorded GI50 (compound `CC(C)[C@@H](C)[C@@]1(C)C[C@@H]1[C@@H](C)[C@H]1CC[C@@H]([C@@H]2CC=C3C[C@@H](O)CC[C@]3(C)C2=O)[C@]1(C)CCO` ): 11 µM (inactive)

* * *

Collected GI50 values appear next to each entry.
- Tested on: NCI/ADR-RES
- Assay notes: NCI tumour cell line growth inhibition, 48 h
The source made the active and inactive calls. Rule as the data show it: active = GI50 up to about 1.1 µM and inactive = higher.

Recorded results for 5 compounds are shown here.
Recorded GI50 (compound COc1cc(C2c3cc4c(cc3OC(NNC(N)=O)C2C)OCO4)cc(OC)c1O (centres undefined) ): 21.3 µM (inactive)

Recorded GI50 (compound COc1cc(C(C[N+](=O)[O-])SC(C)=O)ccc1OCc1ccccc1 (centres undefined) ): 12.2 µM (inactive)

Recorded GI50 (compound `COc1cc(/C=C2\C[C@H]3[C@@H]4CC=C5C[C@@H](N6CCCC6)CC[C@]5(C)[C@H]4CC[C@]3(C)[C@H]2OC(C)=O)cc(OC)c1OC` ): 16.3 µM (inactive)

Recorded GI50 (compound `O=c1[nH]c(Nc2nc3ccccc3[nH]2)nc(O)c1-c1ccccc1` ): > 100 µM (inactive)

Recorded GI50 (compound Nc1ncc(Cl)c(NCC2(CO)CC(CCc3ccccc3)C2)n1 (centres undefined) ): 3.61 µM (inactive)

Continuing:
Recorded GI50 (compound `Cc1ccc(/C=N/n2c(-c3ccc(C)cc3)n[nH]c2=O)cc1` ): 59.6 µM (inactive)

Recorded GI50 (compound `O=C1c2cc(Cc3ccccc3)c(=O)c(Cc3ccccc3)cc2C(=O)c2cc(Cc3ccccc3)c(=O)c(Cc3ccccc3)cc21` ): > 100 µM (inactive)

Recorded GI50 (compound `CCOC(=O)c1c(SCCN2CCCCC2)n(-c2ccccc2)c(=S)n(-c2ccccc2)c1=O` ): 21.2 µM (inactive)

Recorded GI50 (compound `CCc1nc(N)nc(N)c1-c1ccc(NC)c([N+](=O)[O-])c1` ): 1.2 µM (inactive)

* * *

Collected GI50 values appear next to each entry.
- Tested on: COLO 205
- Assay notes: NCI tumour cell line growth inhibition, 48 h
Calls of active or inactive are those of the source. Rule as the data show it: active = GI50 up to about 1.1 µM and inactive = higher.

Recorded results for 8 compounds are shown here.
Recorded GI50 (compound CC(C)CC1NC(=O)CCC(NC(=O)C(Cc2ccc(O)cc2)NC(=O)OCc2ccccc2)C(=O)NC(Cc2ccccc2)C(=O)NC(Cc2ccccc2)NC1=O (centres undefined) ): > 100 µM (inactive)

Recorded GI50 (compound `CC1(C)CCC[C@]2(C)[C@H]3[C@H](C#N)c4cc(O)c(O)cc4O[C@@]3(C)CC[C@@H]12` ): > 10 µM (inactive)

Recorded GI50 (compound `O=C(c1ccccc1)c1cc(-c2ccccc2)c(-c2ccccc2)[nH]c(=O)c1=O` ): 27.2 µM (inactive)

Recorded GI50 (compound `CCCCN(c1ccccc1)c1ncnc2c1cnn2C` ): > 100 µM (inactive)

Recorded GI50 (compound `Oc1cc(/C=C/c2ccccc2)nc2cc3c(cc12)OCO3` ): 2.38 µM (inactive)

Recorded GI50 (compound `CC(C)(C)NC(NC(C)(C)C)=C(/C=C(/Cl)[N+](=O)[O-])[N+](=O)[O-]` ): 26.4 µM (inactive)

Recorded GI50 (compound CCN1CC2(C)CCC(OC)C34C5CC6CCC(O)(C5C(=O)O6)C(C(O)C23)C14 (centres undefined) ): > 100 µM (inactive)

Recorded GI50 (compound CCN(CC)c1ccc(/C=C/C2=NN(c3cccc(S(=O)(=O)O)c3)C3(C2)SCC(=O)N3c2nc3ccccc3s2)cc1 (centres undefined) ): 24.1 µM (inactive)

Continuing:
Recorded GI50 (compound `O=C(O)CCCNS(=O)(=O)c1ccccc1` ): > 100 µM (inactive)

* * *

- Test system: 786-0
- Assay notes: NCI tumour cell line growth inhibition, 48 h
Active and inactive are the calls of the source. Rule as the data show it: active = GI50 up to about 1.1 µM and inactive = higher.
Measure: GI50

Recorded GI50 (compound `O=C(NC(=O)c1cn(CCN2CCN(C(=O)NCCCCCCNC(=O)N3CCN(CCn4cc(C(=O)NC(=O)OCc5ccccc5)c(=O)[nH]c4=O)CC3)CC2)c(=O)[nH]c1=O)OCc1ccccc1` ): > 100 µM (inactive)

Recorded GI50 (compound `CCCCCCNc1n[nH]c(=O)c2c1nnn2Cc1ccccc1` ): > 100 µM (inactive)

Recorded GI50 (compound COC(=O)CC1NC(=O)C1C(C)(OC)OC (stereo unspecified) ): > 100 µM (inactive)

Recorded GI50 (compound COC1OC2COC(c3ccccc3)OC2C(O)C1Br (stereo unspecified) ): > 100 µM (inactive)

Recorded GI50 (compound `COC(=O)[C@@H]1C(=O)O[C@@H](c2ccc(OC)c(OC)c2OC)[C@@H]1C(=O)OC.COC(=O)[C@H]1C(=O)O[C@@H](c2ccc(OC)c(OC)c2OC)[C@@H]1C(=O)OC` ): > 100 µM (inactive)

Recorded GI50 (compound `O=C1c2cc(Cc3ccccc3)c(=O)c(Cc3ccccc3)cc2C(=O)c2cc(Cc3ccccc3)c(=O)c(Cc3ccccc3)cc21` ): > 100 µM (inactive)

Recorded GI50 (compound COC(=O)C12C3C4C1C1C2C3C41I (stereo unspecified) ): > 100 µM (inactive)

Recorded GI50 (compound `O=C(CCCNc1nc(-c2ccccc2)cs1)c1cccs1` ): > 100 µM (inactive)

Recorded GI50 (compound CC(=O)SC(C[N+](=O)[O-])c1ccccc1 (stereo unspecified) ): 3.95 µM (inactive)

Recorded GI50 (compound `Cc1cc(=O)c2cc(/N=C/c3ccc([N+](=O)[O-])o3)ccc2o1` ): 64.4 µM (inactive)

Recorded GI50 (compound CCOC(=O)C1(C(=O)OCC)CC=C(C)CC12C(=O)Nc1ccccc12 (stereo unspecified) ): > 100 µM (inactive)

Recorded GI50 (compound c1ccc(C2=NOC3C4CCC(C4)C23)cc1 (stereo unspecified) ): > 100 µM (inactive)

Recorded GI50 (compound `O=C(/C=C/c1ccc(-c2ccccc2)cc1)NCc1ccc(C(=O)NCCc2ccccc2)cc1` ): 59.2 µM (inactive)

Recorded GI50 (compound CCC(Oc1ccc(OC)c2c1C(=O)CCC2)C(=O)O (stereo unspecified) ): > 100 µM (inactive)

Recorded GI50 (compound `COc1ccc2c(c1)c1c3c(ccc4ncn2c43)N(CCN(C)C)CCN=1` ): 0.19 µM (active)

Recorded GI50 (compound `O=C1/C(=c2\s/c(=C\c3ccccc3)c(=O)n2-c2ccccc2)SC(=S)N1c1ccccc1` ): 45.8 µM (inactive)

Recorded GI50 (compound CC(=O)NC1=C(C)C(=O)c2c(nc3n2CCC3O)C1=N (stereo unspecified) ): 18.6 µM (inactive)

Recorded GI50 (compound NC(Cc1ccc(O)cn1)C(=O)O (stereo unspecified) ): > 100 µM (inactive)

Recorded GI50 (compound `CC(=O)O/N=C/c1ncccc1OC(C)=O` ): > 100 µM (inactive)

Recorded GI50 (compound O=C(c1cccnc1)N1N=C(c2ccccc2)CC1(O)c1cc(F)c(Cl)cc1Cl (stereo unspecified) ): 22.1 µM (inactive)

Recorded GI50 (compound `C/C=C/C(CC(O)(C(F)(F)F)C(F)(F)F)=N/NC(N)=S` ): > 10 µM (inactive)
